tested on: gB AD-2S1 peptide (human cytomegalovirus)
test name: SPR
run conditions: both partners purified
Could you please report measured Kd for the items listed next?
Numbers only, in nM.

MAB313 (antibody, V domains shown) VH: QVQLVQSGGGVIQPGRSLTLSCAASGFTFSAYSLHWVRQAPGKGLQWVAVISFDGNFKHFADSLRGRFTISRDNSKNRFYLQMNGLRGEDTAVYYCARDGRAVDGFSGILDFWGQGTLVSVSS VL: EIVMTQSPATLSLSPGERATLSCRASQSVGRYLTWFQQKPGQAPRLLIYDASERATGIPARFSGSGSGTDFTLTISSLEPEDFAVYYCQQRANWPPLTFGGGTKVEIK : 4.38
I4 (antibody, V domains shown, also called intermediate 4) VH: QVQLVESGGGVVQPGRSLRLSCAASGFTFNTYNMHWVRQAPGKGLEWVAVISNDGTYKYSADSVKGRFSISRDNSKNTLYLQMNSLRPDDTAVYYCARDGRSVGGFSGILDPWGQGTLVTVSS VL: EIVLTQSPATLSLSPGDRATLSCRASQSVGSYLAWYQQKPGQAPRLLIYDASDRATGIPARFSGSGSGTDFTLTISSLEPEDFAVYYCQQRSNWPPLTFGGGTKVEIK : 1.85
I1 (antibody, V domains shown, also called intermediate 1) VH: QVQLVESGGGVVQPGRSLRLSCAASGFTFNTYNMHWVRQAPGKGLEWVAVISNDGTYKYSADSVKGRFSISRDNSKNTLYLQMNSLRPDDTAVYYCARDGRSVGGFSGILDPWGQGTLVTVSS VL: EIVMTQSPATLSLSPGDRATLSCRASQSVGSYLAWYQQKPGQAPRLLIYDASDRATGIPARFSGSGSGTDFTLTISSLEPEDFAVYYCQQRSNWPPLTFGGGTKVEIK : 1.59
MAB309 (I2) (antibody, V domains shown) VH: QVQLVQSGGGVVQPGTSLRLSCAASGFMFNTYNMHWVRQAPGKGLEWVAVISNDGTYKHFADSLKGRFSISRDDSKNTLYLHMNSLRPDDTAIYYCARDGRSVGGFSGILDPWGQGTLVTVSS VL: EIVLTQSPATLSLSPGDRATLSCRASQTVGRYLAWYQQKPGQAPRLLIYDASDRATGISARFSGSGSGTDFTLTISSLEPEDFAVYYCQQRSSWPPLTFGGGTKVEIK : 3.77

Batch of 2 binders: report Kd for each.
1. MAB316 (antibody, V domains shown) VH: QVQLVQSGGGVVQPGRSLTLSCAASGFTFSGFSLHWVRQAPGKGLQWVAVISFDGNHKHFADSLKGRFTISRDNSKNTLYLQINDLRGEDTAVYYCARDGRAVDGFSGILDFWGQGTLVSVSS VL: EIVMTQSPATLSLSPGERATLSCRASQSVGRYLTWFQQKPGQAPRLLIYDASERATGVPARFSGSGSGTDFTLTISSLEPEDFAVYYCQQRSNWPPLTFGGGTKVEIK
2. MAB343 (antibody, V domains shown) VH: QVQLQESGGGVVQPGRSLRLSCAASGFTFNTYNMHWVRQAPGKGLEWVAVISNDGTYKYSADSVKGRFSISRGNSKNTLYLQMNSLRPDDTAVYYCARDGRSVGGFSGILDPWGQGTLATVSS VL: EIVMTQSPATLSLSPGDRATLSCRASQSVGSYLAWYQQKPGQAPRLLIYDASDRATGIPARFSGSGSGTDFTLTISSLEPEDFAVYYCQQRSNWPPLTFGGGTKVEIK

2.96
1.57
